So I've got a bunch of compounds here, and I need their TGI values.
Tested on: UACC-62 melanoma
assay name: NCI tumour cell line growth inhibition, 48 h

Incoming: Indicate the recorded TGI value for this compound: "NCc1cc(O)c(O)c(O)c1"
Outgoing: > 100 µM

Incoming: Please supply the value of reported TGI for the item "O=C(Nc1ccc(Cl)c(Cl)c1)OCCN1c2ccccc2Sc2ccccc21"
Outgoing: > 10 µM

Incoming: Kindly indicate its recorded TGI. Item: O=C(NS(=O)(=O)c1ccccc1)C(Cc1ccccc1)C(Cc1ccccc1)C(=O)NS(=O)(=O)c1ccccc1 (centres undefined)
Outgoing: > 100 µM

Incoming: Identify the reported TGI for the following entry. O=C(CC1C(=O)Nc2ccccc2S1=O)Nc1ccc(Cl)cc1 (centres undefined)
Outgoing: > 100 µM
